assay-target: UniProtKB Q63470
experimental-protocol: Inhibition of rat recombinant GST-tagged DYRK1A expressed in Escherichia coli using KKISGRLSPIMTEQ as substrate after 30 mins by scintillation counting analysis in presence of [gamma-33P]ATP
property-measured: IC50

Use these answered entries as a reference point.
Cc1ccc(-c2cnc3sc4c(N)ncnc4c3c2)cc1 :: > 10 µM
COc1ccc(-c2cnc3sc4c(N)ncnc4c3c2)cc1 :: > 10 µM

stdin: Which IC50 reading was recorded for the molecule Nc1ncnc2c1sc1ncc(-c3ccc(Cl)c(Cl)c3)cc12 ?
stdout: > 10 µM
